All values here come from patent US20040142864A1.

# tested_system: PIM-1 (Homo sapiens)
# Sequence (P11309 whole entry): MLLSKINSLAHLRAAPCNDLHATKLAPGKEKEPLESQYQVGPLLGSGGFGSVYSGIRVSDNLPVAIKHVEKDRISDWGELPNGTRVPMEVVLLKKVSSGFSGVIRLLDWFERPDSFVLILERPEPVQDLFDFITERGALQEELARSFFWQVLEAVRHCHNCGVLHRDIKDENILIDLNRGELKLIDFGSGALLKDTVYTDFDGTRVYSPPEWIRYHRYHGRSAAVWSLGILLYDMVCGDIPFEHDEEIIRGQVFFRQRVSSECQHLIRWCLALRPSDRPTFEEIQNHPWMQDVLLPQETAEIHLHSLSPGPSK
metric: IC50
Write the numeric value and append its unit.

Lookup: Tell me measured IC50 for CSc1cccc(Nc2ncc3cc(-c4c(Cl)cccc4Cl)c(=O)n(C)c3n2)c1 please.
Found: 10 nM
